test system: Escherichia coli TOP10; experiment: shrunken log2 fold change of peptide-encoding DNA abundance (4.5 h post-induction vs induction); higher = less antimicrobial activity (less host growth inhibition); details: time post-induction: 4.5 h; library: site-saturation at positions 5, 18, 19, 20;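 also: peptides expressed intracellularly from a pBAD plasmid library in pooled LB shake-flask culture, induced with 0.3% L-arabinose, DNA abundance read by NGS, three biological replicates, DESeq2 with apeglm shrinkage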
Provide the recorded shrunken log2 fold change for the entries that follow.
Give bare numbers.

Field: example entries. Status: answers known.
RRIRHRPPRLPRPRPRPCGCPRP
-0.0378
RRIRHRPPRLPRPRPRPLRSPRP
0.549
RRIRIRPPRLPRPRPRPLDAPRP
-0.142
RRIRNRPPRLPRPRPRPACTPRP
-0.0652

# ---- query sequence ----
## Task Under Escherichia coli TOP10: report shrunken log2 fold change of "RRIRSRPPRLPRPRPRPWLMPRP" .
## Result -0.156
